So I've got a bunch of compounds here, and I need their combination Emax values.
System: SCC-4 (Oral Cavity Carcinoma)
protocol.notes: combination Emax (second highest fraction inhibited in the dose matrix, 72 h); higher = more inhibition; extreme values may be limits of the assay
Give only the figure.

What measured combination Emax goes with CC1(C)CCC(CN2CCN(c3ccc(C(=O)NS(=O)(=O)c4ccc(NCC5CCOCC5)c([N+](=O)[O-])c4)c(Oc4cnc5[nH]ccc5c4)c3)CC2)=C(c2ccc(Cl)cc2)C1 [Venetoclax] + C=CCn1c(=O)c2cnc(Nc3ccc(N4CCN(C)CC4)cc3)nc2n1-c1cccc(C(C)(C)O)n1 [AZD1775] (first compound max 1 µM, partner max 1 µM) ?
0.637

// returns reported combination Emax for input CC(=O)c1c(C)c2cnc(Nc3ccc(N4CCNCC4)cn3)nc2n(C2CCCC2)c1=O [Palbociclib] + Cn1cnc2c(F)c(Nc3ccc(Br)cc3Cl)c(C(=O)NOCCO)cc21 [Selumetinib] (first compound max 10 µM, 7x7, partner max 10 µM)
0.377

Recorded combination Emax for CCN(CCO)CCCOc1ccc2c(Nc3cc(CC(=O)Nc4cccc(F)c4)[nH]n3)ncnc2c1 [AZD2811] + O=C(c1cc(Cc2n[nH]c(=O)c3ccccc23)ccc1F)N1CCN(C(=O)C2CC2)CC1 [Olaparib] (first compound max 1 µM, 7x7, partner max 10 µM) , please?
0.406

Please give the measured combination Emax for this compound: CCc1c2c(nc3ccc(O)cc13)-c1cc3c(c(=O)n1C2)COC(=O)[C@]3(O)CC [SN-38] + CN(C)CCCOc1ccc(-c2ccc3ncc4c(c3c2)n(C2CCOCC2)c(=O)n4C)cn1 [AZD0156] (first compound max 0.3 µM, 7x7, partner max 1 µM)
0.839

###

Tested on: AM-38 (Glioblastoma);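 also: after 72 h of two-drug dosing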
protocol.notes: Bliss excess, mean over the matrix (fraction); higher = more synergy
Answer each item with its documented Bliss excess.
Give a plain numeric answer without units written out.

Record request: Bliss excess value, item CC1(C)CCC(CN2CCN(c3ccc(C(=O)NS(=O)(=O)c4ccc(NCC5CCOCC5)c([N+](=O)[O-])c4)c(Oc4cnc5[nH]ccc5c4)c3)CC2)=C(c2ccc(Cl)cc2)C1 [Venetoclax] + Cc1cc2ncnn2cc1Nc1ncc2c(n1)n(C1CCOCC1)c(=O)n2C [AZD7648] (first compound max 1 µM, 7x7, partner max 10 µM)
-0.0098

What measured Bliss excess goes with CN(CCO)CC[C@H](CSc1ccccc1)Nc1ccc(S(=O)(=O)NC(=O)c2ccc(N3CCC([C@@H](O)c4ccccc4-c4ccc(Cl)cc4)CC3)cc2)cc1S(=O)(=O)C(F)(F)F [AZD4320] + C[C@@H](Nc1cc(F)cc(F)c1)c1cc(C(=O)N(C)C)cc2c(=O)cc(N3CCOCC3)oc12 [AZD8186] (first compound max 1 µM, 7x7, partner max 3 µM) ?
-0.0033

Param item = COc1nnc2ccc(N3CCC(c4ccc(OCCN5CCN(C)C(=O)[C@H]5C)cc4)CC3)nn12 [AZD5153] + CCN(CCO)CCCOc1ccc2c(Nc3cc(CC(=O)Nc4cccc(F)c4)[nH]n3)ncnc2c1 [AZD2811] (first compound max 1 µM, 7x7, partner max 1 µM) ; retrieve measured Bliss excess.
0.039

Bliss excess for Cc1cc2ncnn2cc1Nc1ncc2c(n1)n(C1CCOCC1)c(=O)n2C [AZD7648] + CCN(CCO)CCCOc1ccc2c(Nc3cc(CC(=O)Nc4cccc(F)c4)[nH]n3)ncnc2c1 [AZD2811] (first compound max 10 µM, 7x7, partner max 1 µM) ?
0.0106
